IC50 reference
- targetUnderTest: Human IL-17A (Homo sapiens)
- Sequence (Q16552 20-155 limits assumed): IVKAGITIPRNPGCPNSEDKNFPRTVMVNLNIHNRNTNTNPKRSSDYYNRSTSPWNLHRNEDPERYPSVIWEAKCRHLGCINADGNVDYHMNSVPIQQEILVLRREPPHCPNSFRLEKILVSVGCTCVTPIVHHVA
- experimentSummary: Inhibition of human IL-17A protein-induced GROα/CXCL1 production in HT-29 cells
- Assay type: cell-based
- Set-up: purchased R&D 317-ILB; host or cells: added exogenously to HT-29 cells
- experimentalContext: 30 ng/mL human IL-17A protein, 48 h, GROα in supernatant by ELISA kit, read-out: Inhibitory IC50 of compounds on HT-29 cell GROα/CXCL1

compound="CCn1nccc1C(=O)N[C@H](C(=O)Nc1cc2c(cc1F)-c1c(n[nH]c1C)CCN(CC(F)F)C2)C(C1CC1)C1CC1 [compound 159]" measvalue="≤ 100 nM"
compound="Cc1[nH]nc2c1-c1cc(F)c(NC(=O)[C@@H](NC(=O)c3ccnn3C(C)CF)C(C3CC3)C3CC3)cc1COCC2 (single isomer, unassigned) [compound 42a]" measvalue="≤ 100 nM"

Prompt: Which measured IC50 value corresponds to Cc1[nH]nc2c1-c1cnc(NC(=O)[C@@H](NC(=O)c3ccnn3C(C)C)C(C3CC3)C3CC3)cc1CN(C1CCC1)C(=O)C2 [compound 197] ?
Response: ≤ 100 nM

Prompt: Which measured IC50 value corresponds to Cc1[nH]nc2c1-c1cc(F)c(NC(=O)[C@@H](NC(=O)c3ccnn3CCCN3CCOCC3)C(C3CC3)C3CC3)cc1COCC2 [compound 92] ?
Response: ≤ 100 nM

Prompt: Which measured IC50 value corresponds to Cc1[nH]nc2c1-c1cc(F)c(NC(=O)[C@@H](NC(=O)c3ccnn3C(C)C)C(C3CC3)C3CC3)cc1CN(C1CC(F)(F)C1)C(=O)C2 [compound 169] ?
Response: ≤ 100 nM

Prompt: Which measured IC50 value corresponds to Cc1[nH]nc2c1-c1cc(F)c(NC(=O)[C@@H](NC(=O)c3ccnn3CCC(F)(F)F)C(C3CC3)C3CC3)cc1COCC2 [compound 88] ?
Response: ≤ 100 nM

Prompt: Which measured IC50 value corresponds to Cc1[nH]nc2c1-c1cc(F)c(NC(=O)[C@@H](NC(=O)c3ccnn3C(C)CF)C(C3CC3)C3CC3)cc1COCC2 (single isomer, unassigned) [compound 42b] ?
Response: 100 to 500 nM

Prompt: Which measured IC50 value corresponds to Cc1[nH]nc2c1-c1cc(F)c(NC(=O)[C@@H](NC(=O)c3ccnn3C(C)C)C(C3CC3)C3CC3)cc1COCC2 [compound 15] ?
Response: ≤ 100 nM

Prompt: Which measured IC50 value corresponds to Cc1[nH]nc2c1-c1cc(F)c(NC(=O)[C@@H](NC(=O)c3ccnn3C(C)C)C(C3CC3)C3CC3)cc1CN(C(C)C(F)(F)F)C(=O)C2 (single isomer, unassigned) [compound 186a] ?
Response: ≤ 100 nM

---

- targetUnderTest: Human IL-17A (Homo sapiens, UniProt Q16552)
- experimentSummary: IL-17A enzyme-linked immunosorbent assay (competitive ELISA, IL-17A/IL-17Ra receptor-ligand binding)
- Set-up: purchased Sino Biological Inc. 12047-H07B
- experimentalContext: human IL-17A coated plate, human IL-17Ra, read-out: IC50, inhibitory activity of compounds on human IL-17A
pIC50: −log10 of the molar value.
parameterMeasured: pIC50

compound="Cc1[nH]nc2c1-c1ccc(NC(=O)[C@@H](NC(=O)c3ccnn3C)C(C3CC3)C3CC3)cc1COCC2 [compound 2]" parametermeasured=pIC50 measvalue="≥ 7.30"
compound="Cc1[nH]nc2c1-c1cnc(NC(=O)[C@@H](NC(=O)c3ccnn3C(C)C)C(C3CC3)C3CC3)cc1CN(C(C)(C)C(F)(F)F)CC2 [compound 210]" parametermeasured=pIC50 measvalue="≥ 7.30"

Next compound, please.
Prompt: Which measured pIC50 value corresponds to CCn1nccc1C(=O)N[C@H](C(=O)Nc1cc2c(cc1F)-c1c(n[nH]c1C)CC(=O)N(C)C2)C(C1CC1)C1CC1 [compound 133] ?
Response: ≥ 7.30
